System: EKVX
Assay: NCI tumour cell line growth inhibition, 48 h
Active and inactive are the calls of the source. No stated cut-off is given here; in the data, active = GI50 up to about 1.1 µM and inactive = higher.
Entries annotated with measured GI50

Example compounds with recorded GI50:
{"compound": "CCOC(=O)O/N=C1/C(=C2/C(=O)Nc3ccccc32)Nc2ccccc21", "system": "EKVX", "observed measurement": "2.54 µM (inactive)"}
{"compound": "COc1cc(C2S/C(=C/c3ccccc3)C(=O)N2Cc2ccccc2)cc(OC)c1OC (stereo unspecified)", "system": "EKVX", "observed measurement": "55.6 µM (inactive)"}
{"compound": "CC(=O)OCCOc1cc2c([nH]c3ccccc32)c(C)c2cccc1-2", "system": "EKVX", "observed measurement": "1.86 µM (inactive)"}

Exercise: Form field: reported GI50 of COC(=O)C1CC(C(=O)OC)c2nc3cc(C)c(C)cc3nc21 (stereo unspecified)
Key: > 100 µM (inactive)

Exercise: Then this compound: `O=C1C=C(Nc2cc(Cl)ccc2Cl)c2ccccc2C1=O`
Key: > 100 µM (inactive)

The reported numbers originate from ChEMBL document CHEMBL1201862.
